# IC50 against Epidermal growth factor receptor (Homo sapiens, UniProt P00533), merged from multiple literature sources

Form field: IC50 recorded for `COc1ccc(-c2noc(-c3cnc(Oc4ccc5cc(C(=O)N6CCN(Cc7ccc(OCC(F)(F)F)cc7)CC6)n(C)c5c4)cn3)n2)cc1` with Epidermal growth factor receptor (Homo sapiens, UniProt P00533) (enter value) > 10 µM

Hello, I am looking for reported IC50 with Epidermal growth factor receptor (Homo sapiens, UniProt P00533) for `C=CC(=O)Nc1cc(Nc2nc(C)cc(-c3cn(C)c4ccccc34)n2)c(OC)cc1N(C)CCN(C)C` . Could you help? 1.34 µM

API: value(readout= IC50, system= Epidermal growth factor receptor (Homo sapiens, UniProt P00533), query= `Cc1ccc(N)cc1Nc1nccc(-c2cccnc2)n1` ) > 100 µM
